- assayed.system: CD71 on SK-BR-3 cells (human, UniProt P02786 1-760)
- Sequence (P02786 whole entry): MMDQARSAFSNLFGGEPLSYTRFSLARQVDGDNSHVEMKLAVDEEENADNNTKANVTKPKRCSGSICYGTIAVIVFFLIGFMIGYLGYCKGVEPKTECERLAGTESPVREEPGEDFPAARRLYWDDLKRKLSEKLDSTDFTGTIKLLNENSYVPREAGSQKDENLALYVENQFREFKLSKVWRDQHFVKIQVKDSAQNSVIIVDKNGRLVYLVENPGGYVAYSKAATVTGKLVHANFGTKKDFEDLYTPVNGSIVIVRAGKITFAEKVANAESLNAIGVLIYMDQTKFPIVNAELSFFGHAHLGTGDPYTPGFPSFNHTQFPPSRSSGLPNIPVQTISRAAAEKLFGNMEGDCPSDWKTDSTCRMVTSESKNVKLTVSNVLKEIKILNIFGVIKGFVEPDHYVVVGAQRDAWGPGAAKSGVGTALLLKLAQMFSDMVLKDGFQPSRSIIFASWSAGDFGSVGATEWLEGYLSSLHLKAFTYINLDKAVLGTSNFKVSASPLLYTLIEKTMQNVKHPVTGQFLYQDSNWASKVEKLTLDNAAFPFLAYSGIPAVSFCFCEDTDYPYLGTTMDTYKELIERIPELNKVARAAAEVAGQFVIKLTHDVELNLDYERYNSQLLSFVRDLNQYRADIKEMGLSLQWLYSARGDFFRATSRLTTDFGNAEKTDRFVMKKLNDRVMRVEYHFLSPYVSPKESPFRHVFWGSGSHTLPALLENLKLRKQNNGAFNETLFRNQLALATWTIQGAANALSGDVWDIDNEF
- assay.method.text: cell-based or functional assay
readout.name: IC50, SKBR-3 cell viability, MMAF conjugate

binder	result
SEQ ID NO 55 (designed binder, FN3 domain) MLPAPKNLVVSRVTEDSARLSWTAPDAAFDSFIIEYWEFVGYGEAIVLTVPGSERSYDLTGLKPGTEYWVAIYGVKGGDLSKPLSAIFTT	0.026 nM
SEQ ID NO 35 (designed binder, FN3 domain) MLPAPKNLVVSRVTEDSARLSWTAPDAAFDSFEIAYFEAIWNGEAIYLTVPGSERSYDLTGLKPGTEYQVEIRGVKGGPTSRPLFAWFTT	2.5 nM
